Sourced from paper PMC11408085

Below, each entry is listed alongside its reported fold change in t1/2.
- systemUnderTest: IYD from Haliscomenobacter hydrossis (Haliscomenobacter hydrossis, UniProt F4KU78)
- Sequence (F4KU78 1-222): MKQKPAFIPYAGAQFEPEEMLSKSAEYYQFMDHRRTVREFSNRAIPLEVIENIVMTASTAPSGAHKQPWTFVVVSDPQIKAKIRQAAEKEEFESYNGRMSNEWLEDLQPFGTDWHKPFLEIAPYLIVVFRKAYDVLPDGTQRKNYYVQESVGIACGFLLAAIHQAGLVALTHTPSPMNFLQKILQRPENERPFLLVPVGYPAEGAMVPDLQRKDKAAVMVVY
- conditions: relative to IYD without ligand (10 min)

Observe how each entry below is paired with its result.
Give recorded fold change in t1/2. NC(=O)C(N)Cc1ccc(O)c(I)c1 (stereo not shown) [I-tyrosinamide]
2.7

Give recorded fold change in t1/2. N[C@@H](Cc1ccc(O)c(I)c1)C(=O)O [I-Tyr, L-3-iodotyrosine, reference compound]
2.2

Give recorded fold change in t1/2. N[C@H](Cc1ccc(O)c(I)c1)C(=O)O
0.62

Read the next record carefully.
Give recorded fold change in t1/2. NCCc1ccc(O)c(I)c1
2.7
